Reference source: paper PMC10459118

- experiment: in vitro
- reported conditions: human
reported endpoint: IC50 at 72 h (µM)
The figure you give is taken to be in µM; do not add the unit.

Please review the following examples before continuing.
INSERT INTO assay_data (compound, recorded_result) VALUES
  ('CC(C)(C)CC(C)(C)c1ccc(O)c(-n2nc3ccccc3n2)c1', 67.5),
  ('O=C(OC1CCCCC1)c1ccccc1C(=O)OC1CCCCC1 [compound 1, dicyclohexyl phthalate]', 88),
  ('Cc1cc(Cc2cc(C)cc(C(C)(C)C)c2O)c(O)c(C(C)(C)C)c1', 18.6);

For `CC(c1cc(C(C)(C)C)cc(C(C)(C)C)c1O)c1cc(C(C)(C)C)cc(C(C)(C)C)c1O` , what is its reported IC50 at 72 h?
18.1

Also need `Cc1cc(Cc2cc(C)cc(C3CCCCC3)c2O)c(O)c(C2CCCCC2)c1` , thanks.
20.2
